METHOD NOTES: Pharmacokinetics of CDD-3031 in mice, oral gavage
Assay type: in vivo, mouse
RUN CONDITIONS: mouse, blood, oral gavage 50 mg/kg, n = 3, mean ± SD, read-out: MRT0-∞
ASSAY METRIC: MRT inf (h)
Please respond with the number in h and leave the unit unwritten.

Enquiry: Fill in the blank: the reported MRT inf of CN(Cc1ccn2ncc(C(N)=O)c2c1)C(=O)Nc1ccc(OC(F)(F)F)cc1 is ____.
Return: 10.7

###

METHOD NOTES: Pharmacokinetics of CDD-3031 in mice, oral gavage
Assay type: in vivo, mouse
RUN CONDITIONS: mouse, blood, oral gavage 50 mg/kg, n = 3, mean ± SD, read-out: MRT0-t
ASSAY METRIC: MRT last (h)
Please respond with the number in h and leave the unit unwritten.

Enquiry: Fill in the blank: the reported MRT last of CN(Cc1ccn2ncc(C(N)=O)c2c1)C(=O)Nc1ccc(OC(F)(F)F)cc1 is ____.
Return: 7.23

###

Can you tell me IC50 for the items I'm about to list?
Please respond with the number in µM and leave the unit unwritten.

Enquiry: Missing value: IC50, NTRK2 (Homo sapiens (Human), UniProt Q16620), entry CC(C)c1ccc(OCC(=O)N(Cc2ccn3ncc(C(N)=O)c3c2)C(C)C)cc1 [CDD-3032] . Fill in?
Return: 0.0061

Enquiry: Missing value: IC50, NTRK2 (Homo sapiens (Human), UniProt Q16620), entry CC(C)c1ccc(OCC(=O)N(C)Cc2ccn3ncc(C(N)=O)c3c2)cc1 [CDD-3120] . Fill in?
Return: 0.242

Enquiry: Missing value: IC50, NTRK2 (Homo sapiens (Human), UniProt Q16620), entry CC(=O)c1ccc(OCC(=O)N(Cc2ccn3ncc(C(N)=O)c3c2)C(C)C)cc1 [CDD-3256] . Fill in?
Return: 0.223

Enquiry: Missing value: IC50, NTRK2 (Homo sapiens (Human), UniProt Q16620), entry CN(Cc1ccn2ncc(C(N)=O)c2c1)C(=O)Nc1ccc(OC(F)(F)F)cc1 [CDD-3031] . Fill in?
Return: 0.0119

Enquiry: Missing value: IC50, NTRK2 (Homo sapiens (Human), UniProt Q16620), entry CCC(C)N(Cc1ccn2ncc(C(=O)O)c2c1)C(=O)Nc1ccc(OC(F)(F)F)cc1 (centres unmarked) [CDD-2743] . Fill in?
Return: 0.006

Enquiry: Missing value: IC50, NTRK2 (Homo sapiens (Human), UniProt Q16620), entry CC(C)N(Cc1ccn2ncc(C#N)c2c1)C(=O)Nc1ccc(OC(F)(F)F)cc1 [CDD-2741] . Fill in?
Return: 0.0058

Enquiry: Missing value: IC50, NTRK2 (Homo sapiens (Human), UniProt Q16620), entry O=C(Nc1ccc(OC(F)(F)F)cc1)N(Cc1ccn2nccc2c1)C1CCCCCC1 [CDD-2301] . Fill in?
Return: 0.513

Enquiry: Missing value: IC50, NTRK2 (Homo sapiens (Human), UniProt Q16620), entry O=C(Nc1ccc(OC(F)(F)F)cc1)N(Cc1ccn2nccc2c1)c1ccccc1 [CDD-2296] . Fill in?
Return: 0.335

Enquiry: Missing value: IC50, NTRK2 (Homo sapiens (Human), UniProt Q16620), entry CC(C)N(Cc1ccn2nccc2c1)C(=O)CNc1ccc(C(C)(C)C)nc1 [CDD-3306] . Fill in?
Return: 1.13

Enquiry: Missing value: IC50, NTRK2 (Homo sapiens (Human), UniProt Q16620), entry CC(C)CN(Cc1ccn2ncc(C(=O)O)c2c1)C(=O)Nc1ccc(OC(F)(F)F)cc1 [CDD-2742] . Fill in?
Return: 0.0057

Enquiry: Missing value: IC50, NTRK2 (Homo sapiens (Human), UniProt Q16620), entry CN(Cc1ccn2ncc(C(N)=O)c2c1)C(=O)CNc1ccc(OC(F)(F)F)cc1 [CDD-3258] . Fill in?
Return: 0.963

Enquiry: Missing value: IC50, NTRK2 (Homo sapiens (Human), UniProt Q16620), entry CCOc1ccc(CC(=O)N(Cc2ccn3nccc3c2)[C@H](C)c2ccccc2)cc1 [CDD-2222] . Fill in?
Return: 0.043

Enquiry: Missing value: IC50, NTRK2 (Homo sapiens (Human), UniProt Q16620), entry CC(C)N(Cc1ccn2ncc(C(=O)O)c2c1)C(=O)Nc1ccc(OC(F)(F)F)cc1 [CDD-2330] . Fill in?
Return: 0.0035

Enquiry: Missing value: IC50, NTRK2 (Homo sapiens (Human), UniProt Q16620), entry CN(Cc1ccn2ncc(C(N)=O)c2c1)C(=S)Nc1ccc(OC(F)(F)F)cc1 [CDD-3118] . Fill in?
Return: 0.019

Enquiry: Missing value: IC50, NTRK2 (Homo sapiens (Human), UniProt Q16620), entry CN(Cc1ccn2ncc(C(N)=O)c2c1)S(=O)(=O)Nc1ccc(OC(F)(F)F)cc1 [CDD-3308] . Fill in?
Return: 4.45

Enquiry: Missing value: IC50, NTRK2 (Homo sapiens (Human), UniProt Q16620), entry CC(C)N(Cc1ccn2ncc(C(N)=O)c2c1)C(=O)COc1ccc(C(C)(C)C)cc1 [CDD-3184] . Fill in?
Return: 0.0067

###

Can you tell me pIC50 for the items I'm about to list?
// scale note: pIC50 = -log10(conc_M); give the bare number

Enquiry: Missing value: pIC50, UniProt Q16288, entry NC(=O)c1cnn2ccc(CNC(=S)Nc3ccc(OC(F)(F)F)cc3)cc12 . Fill in?
Return: 6.82

Enquiry: Missing value: pIC50, UniProt Q16288, entry CC(C)N(Cc1ccn2ncc(Br)c2c1)C(=O)Nc1ccc(OC(F)(F)F)cc1 . Fill in?
Return: 8.36

Enquiry: Missing value: pIC50, UniProt Q16288, entry CC[C@H](C)N(Cc1ccn2ncc(C(N)=O)c2c1)C(=O)Nc1ccc(OC(F)(F)F)cc1 . Fill in?
Return: 8.08

Enquiry: Missing value: pIC50, UniProt Q16288, entry CC(C)N(Cc1ccn2nccc2c1)C(=O)CNc1ccc(C(C)(C)C)nc1 . Fill in?
Return: 5.32

Enquiry: Missing value: pIC50, UniProt Q16288, entry C=C(C)c1ccc(OCC(=O)N(Cc2ccn3ncc(C(N)=O)c3c2)C(C)C)cc1 . Fill in?
Return: 7.27

Enquiry: Missing value: pIC50, UniProt Q16288, entry CN(Cc1ccn2ncc(C(N)=O)c2c1)C(=O)CNc1ccc(OC(F)(F)F)cc1 . Fill in?
Return: 5.63

###

TARGET OR TEST SYSTEM: NTRK1 (Homo sapiens (Human), UniProt P04629)
Sequence (P04629 33-796): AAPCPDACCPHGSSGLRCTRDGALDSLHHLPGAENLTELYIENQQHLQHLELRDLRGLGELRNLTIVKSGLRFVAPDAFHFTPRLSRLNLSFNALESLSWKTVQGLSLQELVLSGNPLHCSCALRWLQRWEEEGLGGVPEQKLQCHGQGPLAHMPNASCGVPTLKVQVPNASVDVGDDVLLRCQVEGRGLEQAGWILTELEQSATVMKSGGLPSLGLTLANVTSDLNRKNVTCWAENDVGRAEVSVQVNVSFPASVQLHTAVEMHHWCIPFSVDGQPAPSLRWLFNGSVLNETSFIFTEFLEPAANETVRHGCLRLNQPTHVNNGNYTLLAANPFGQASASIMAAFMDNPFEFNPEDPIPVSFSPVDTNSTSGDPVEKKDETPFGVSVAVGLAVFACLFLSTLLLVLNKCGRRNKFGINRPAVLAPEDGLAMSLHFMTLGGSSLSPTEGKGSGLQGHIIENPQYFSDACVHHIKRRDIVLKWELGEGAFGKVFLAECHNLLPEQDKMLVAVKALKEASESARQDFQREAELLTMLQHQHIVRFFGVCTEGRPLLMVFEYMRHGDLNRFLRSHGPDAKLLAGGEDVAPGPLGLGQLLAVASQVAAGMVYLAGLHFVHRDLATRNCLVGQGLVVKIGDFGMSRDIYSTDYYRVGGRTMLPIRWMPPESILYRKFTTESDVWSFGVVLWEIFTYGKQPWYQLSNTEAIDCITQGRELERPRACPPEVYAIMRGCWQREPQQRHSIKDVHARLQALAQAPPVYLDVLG
METHOD NOTES: NTRK1 inhibition (IC50)
RUN CONDITIONS: read-out: NTRK1 IC50
Labels assigned by IC50 range: low bracket: < 10 nM; middle bracket: ≥ 10 nM and < 200 nM; high bracket: ≥ 200 nM

Enquiry: Class (by measured IC50) for CN(Cc1ccn2ncc(C(N)=O)c2c1)C(=O)Nc1ccc(OC(F)(F)F)cc1
Return: middle bracket

Enquiry: Class (by measured IC50) for CC(C)N(Cc1ccn2ncc(C(N)=O)c2c1)C(=S)Nc1ccc(OC(F)(F)F)cc1
Return: low bracket

Enquiry: Class (by measured IC50) for NC(=O)c1cnn2ccc(CNC(=O)Nc3ccc(OC(F)(F)F)cc3)cc12
Return: high bracket

Enquiry: Class (by measured IC50) for CC(C)N(Cc1ccn2ncc(Br)c2c1)C(=O)Nc1ccc(OC(F)(F)F)cc1
Return: low bracket

Enquiry: Class (by measured IC50) for CC(C)N(Cc1ccc2[nH]ccc2c1)C(=O)COc1ccc(OC(F)(F)F)cc1
Return: high bracket

Enquiry: Class (by measured IC50) for CC(C)N(Cc1ccn2ncc(C(N)=O)c2c1)C(=O)CNc1ccc(OC(F)(F)F)cc1
Return: high bracket

Enquiry: Class (by measured IC50) for CC(C)c1ccc(OCC(=O)N(Cc2ccn3ncc(C(N)=O)c3c2)C(C)C)cc1
Return: middle bracket

Enquiry: Class (by measured IC50) for CC(C)N(Cc1ccn2ncc(C#N)c2c1)C(=O)Nc1ccc(OC(F)(F)F)cc1
Return: middle bracket

Enquiry: Class (by measured IC50) for CC(C)CN(Cc1ccn2ncc(C(=O)O)c2c1)C(=O)Nc1ccc(OC(F)(F)F)cc1
Return: middle bracket

Enquiry: Class (by measured IC50) for CC(C)N(Cc1ccn2ncc(C(N)=O)c2c1)C(=O)Nc1ccc(OC(F)(F)F)cc1
Return: low bracket

###

Can you tell me half-life for the items I'm about to list?
METHOD NOTES: Metabolic stability in human liver microsomes (HLM)
Please respond with the number in h and leave the unit unwritten.

Enquiry: Fill in the blank: the reported half-life of NC(=O)c1cnn2ccc(CNC(=S)Nc3ccc(OC(F)(F)F)cc3)cc12 is ____.
Return: 3.95

Enquiry: Fill in the blank: the reported half-life of C[C@@H]1CCc2ncc(F)cc2[C@H]2CCCN2c2ccn3ncc(c3n2)C(=O)N1 [Selitrectinib, reference compound] is ____.
Return: 4.07
